- Assay System: Hepatitis C virus serine protease, NS3/NS4A (Hepatitis C virus) (UniProt D2K2A8+A3EZI9)
- Experiment: Inhibitory concentration against hepatitis C virus NS3/4A protease on 18 h pre-incubation in chromogenic assay
- Assay type: protein-complex assay
- Design: concentration or dose not given beside the values
- Condition Context: Hepacivirus hominis; concentration not given here
Residues, ends and D or L forms follow the SMILES beside them. *: point of attachment. X1 = CCC1C(=O)N(S(C)(=O)=O)[C@H]2CCN(*)[C@H]12
Reported inhibition is given for each of the following molecules.

{"Molecule": "CCC1C(=O)N(S(C)(=O)=O)[C@H]2CCN(C(=O)CNC(=O)[C@@H](NC(=O)[C@H](CC(=O)O)NC(=O)[C@H](CCC(=O)O)NC(C)=O)C(C)C)[C@H]12 (stereo partly specified) (Ac-EDVG-X1)", "inhibition, %": 24}
{"Molecule": "CCC1C(=O)N(S(C)(=O)=O)[C@H]2CCN(C(=O)[C@@H](NC(=O)[C@@H](NC(C)=O)C(C)C)C(C)C)[C@H]12 (stereo partly specified)", "inhibition, %": 45}
{"Molecule": "CCC1C(=O)N(S(C)(=O)=O)[C@H]2CCN(C(=O)C(NC(=O)[C@@H](NC(=O)[C@H](CC(=O)O)NC(=O)[C@H](CCC(=O)O)NC(C)=O)C(C)C)C(C)C)[C@H]12 (single isomer, unassigned)", "inhibition, %": 85}
{"Molecule": "CCC1C(=O)N(S(C)(=O)=O)[C@H]2CCN(C(=O)[C@@H]3CCCN3C(=O)[C@@H](NC(=O)[C@H](CC(=O)O)NC(=O)[C@H](CCC(=O)O)NC(C)=O)C(C)C)[C@H]12 (stereo partly specified) (Ac-EDVP-X1)", "inhibition, %": 11}
{"Molecule": "CCC1C(=O)N(S(C)(=O)=O)[C@H]2CCN(C(=O)[C@@H](NC(=O)[C@@H](NC(=O)[C@H](CC(=O)O)NC(C)=O)C(C)C)C(C)C)[C@H]12 (stereo partly specified)", "inhibition, %": 94}
{"Molecule": "CCC1C(=O)N(S(C)(=O)=O)[C@H]2CCN(C(=O)[C@@H](N)C(C)C)[C@H]12 (stereo partly specified)", "inhibition, %": 41}
